system: pupil; experiment: Pupil dilation measured with Neuroptics pupillometer after α-2 agonist pre-treatment and/or phenylephrine; assay type: in vivo, human; settings: photopic conditions (1258.925 lux) after dilation with phenylephrine 10%; eye without pre-treatment
Structures can show the parent of a compound that is named as a salt.
Listing: Pupil size, Non-treated eye of selected compounds
The figure you give is taken to be in mm; do not add the unit.

INSERT INTO measurements (compound, test_target, unit_string, observed_measurement) VALUES
  ('Brc1c(NC2=NCCN2)ccc2nccnc12', 'pupil', 'mm', 3.77),
  ('CNC[C@H](O)c1cccc(O)c1 [Phenylephrine hydrochloride 10%, phenylephrine]', 'pupil', 'mm', 3.36),
  ('Cc1cccc([C@H](C)c2cnc[nH]2)c1C', 'pupil', 'mm', 3.68);

Below: the item to evaluate.
What measured Pupil size, Non-treated eye goes with "Nc1cc(Cl)c(N=C2NCCN2)c(Cl)c1" ? 4.95

###

system: pupil; test: Pupil dilation measured with Neuroptics pupillometer after α-2 agonist pre-treatment and/or phenylephrine; assay type: in vivo, human; conditions: photopic conditions (1258.925 lux) after dilation with phenylephrine 10%; eye without pre-treatment
Where a name gives a salt, the structure may show the parent alone.
Listing: Surgical Work area, Non-treated eye of selected molecules
Don't forget the unit after the value.

INSERT INTO results (molecule, observed_measurement) VALUES
  ('CNC[C@H](O)c1cccc(O)c1 [Phenylephrine hydrochloride 10%, phenylephrine]', '8.862 mm^2'),
  ('Nc1cc(Cl)c(N=C2NCCN2)c(Cl)c1 [Apraclonidine, apraclonidine]', '19.23 mm^2'),
  ('Cc1cccc([C@H](C)c2cnc[nH]2)c1C [Dexmedetomidine, dexmedetomidine]', '10.63 mm^2');

Entry Brc1c(NC2=NCCN2)ccc2nccnc12 [Brimonidine, brimonidine] , system pupil: what Surgical Work area, Non-treated eye was measured? 11.16 mm^2

###

Listing: Surgical Work area, Treated eye of selected compounds
test system: pupil; test: Pupil dilation measured with Neuroptics pupillometer after α-2 agonist pre-treatment and/or phenylephrine; type: in vivo, human; conditions: photopic conditions (1258.925 lux) after dilation with phenylephrine 10%
Where a name gives a salt, the structure may show the parent alone.
The figure you give is taken to be in mm^2; do not add the unit.

Worked examples follow.
INSERT INTO results (compound, unit_string, observed_measurement) VALUES
  ('Brc1c(NC2=NCCN2)ccc2nccnc12', 'mm^2', 20.58),
  ('Nc1cc(Cl)c(N=C2NCCN2)c(Cl)c1', 'mm^2', 6.831),
  ('CNC[C@H](O)c1cccc(O)c1 [Phenylephrine hydrochloride 10%, phenylephrine]', 'mm^2', 10.12);

What measured Surgical Work area, Treated eye goes with "Cc1cccc([C@H](C)c2cnc[nH]2)c1C" ? 32.35
